Quick reference: log10(IC50) of the listed items.
Molecular target: PI3K alpha (Homo sapiens, UniProt P42336)
Construct: for the p110-a subunit (with a deletion of the first 20 amino acids) are generated; His tag (C); Tn5 (Trichoplusia ni) or TiniPro insect cells
Sequence (P42336 with tags, fused parts or gaps limits assumed, species assumed): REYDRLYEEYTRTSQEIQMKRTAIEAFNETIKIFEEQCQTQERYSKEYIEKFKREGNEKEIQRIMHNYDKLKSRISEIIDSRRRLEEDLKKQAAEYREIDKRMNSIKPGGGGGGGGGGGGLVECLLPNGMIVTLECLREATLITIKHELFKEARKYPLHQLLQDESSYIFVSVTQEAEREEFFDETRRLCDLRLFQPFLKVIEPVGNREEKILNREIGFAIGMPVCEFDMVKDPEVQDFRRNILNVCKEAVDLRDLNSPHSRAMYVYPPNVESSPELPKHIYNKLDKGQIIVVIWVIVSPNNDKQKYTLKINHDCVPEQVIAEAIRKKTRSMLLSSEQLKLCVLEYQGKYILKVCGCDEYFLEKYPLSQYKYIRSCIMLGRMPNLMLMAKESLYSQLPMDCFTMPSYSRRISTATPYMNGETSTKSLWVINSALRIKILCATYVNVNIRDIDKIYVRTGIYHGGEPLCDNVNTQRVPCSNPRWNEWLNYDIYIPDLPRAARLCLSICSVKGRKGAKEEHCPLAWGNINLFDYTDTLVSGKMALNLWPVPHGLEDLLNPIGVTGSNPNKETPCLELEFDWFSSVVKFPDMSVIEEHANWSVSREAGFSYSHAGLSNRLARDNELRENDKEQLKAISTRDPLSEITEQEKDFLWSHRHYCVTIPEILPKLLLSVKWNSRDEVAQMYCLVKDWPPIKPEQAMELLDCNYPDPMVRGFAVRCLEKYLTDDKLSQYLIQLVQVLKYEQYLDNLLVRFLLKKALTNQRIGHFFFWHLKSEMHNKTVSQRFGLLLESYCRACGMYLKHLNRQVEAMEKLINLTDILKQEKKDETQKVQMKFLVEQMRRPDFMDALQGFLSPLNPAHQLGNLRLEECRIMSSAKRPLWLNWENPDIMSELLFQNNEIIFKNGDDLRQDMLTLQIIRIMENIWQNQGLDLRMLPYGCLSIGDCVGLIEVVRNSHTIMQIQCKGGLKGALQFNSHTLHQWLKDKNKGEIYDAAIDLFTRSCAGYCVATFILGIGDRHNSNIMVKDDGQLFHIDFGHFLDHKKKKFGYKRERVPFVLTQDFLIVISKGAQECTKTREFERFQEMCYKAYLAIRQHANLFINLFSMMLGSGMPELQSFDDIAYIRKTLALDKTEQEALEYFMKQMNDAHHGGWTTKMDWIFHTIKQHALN
Test: Enzymatic PI3K alpha isoform inhibition (lipid kinase activity, Kinase-Glo)
Conditions: enzymatic assay
Measure name: log10(IC50) (log10 of the value in nM)

Compound	Measured target	Numeric readout
CN1CCN(C(=O)c2cccc(-c3ncnc4ccc(-c5ccc(OC(F)F)nc5)cc34)c2)CC1 [Example 13]	PI3K alpha (Homo sapiens, UniProt P42336)	3.12
COc1ncc(-c2ccc3ncnc(-c4cccc(C(=O)N5CCN(C(C)=O)C(C)(C)C5)c4)c3c2)cc1C#N [Example 37]	PI3K alpha (Homo sapiens, UniProt P42336)	2.63
COc1ncc(-c2ccc3ncnc(-c4cncc(C(=O)N5CCN(C(C)=O)CC5)c4)c3c2)cc1C(F)(F)F [Example 54]	PI3K alpha (Homo sapiens, UniProt P42336)	1.84
COc1ccc(-c2ccc3ncnc(-c4cccc(C(=O)N5CCN(C(C)=O)C(C)(C)C5)c4)c3c2)cn1 [Example 36]	PI3K alpha (Homo sapiens, UniProt P42336)	2.34
COc1ncc(-c2ccc3ncnc(-c4cccc(C(=O)N5CCNCC5)c4)c3c2)cc1C#N [Example 35]	PI3K alpha (Homo sapiens, UniProt P42336)	2.42
COc1cc(C(=O)N2CCN(C(C)=O)CC2)cc(-c2ncnc3ccc(-c4ccc(OC)nc4)cc23)c1 [Example 106]	PI3K alpha (Homo sapiens, UniProt P42336)	2.64
COc1ccc(-c2ccc3ncnc(-c4cccc(C(=O)N5CCS(=O)(=O)CC5)c4)c3c2)cn1 [Example 93]	PI3K alpha (Homo sapiens, UniProt P42336)	2.08
CCOc1ncc(-c2ccc3ncnc(-c4cccc(C(=O)N5CCN(C(C)=O)CC5)c4)c3c2)cn1 [Example 5]	PI3K alpha (Homo sapiens, UniProt P42336)	3.12
COc1ncc(-c2ccc3ncnc(-c4cncc(C(=O)N5CCOC(C)(C)C5)c4)c3c2)cc1C#N [Example 62]	PI3K alpha (Homo sapiens, UniProt P42336)	3.06
CN1CCN(C(=O)c2cccc(-c3ncnc4ccc(-c5cnc(N(C)C)nc5)cc34)c2)CC1 [Example 11]	PI3K alpha (Homo sapiens, UniProt P42336)	3.03
